Where do these numbers come from? They come from paper PMC2248166.

- System Under Test: HLA B*5401 (Homo sapiens, UniProt P01889, A329T/C349S/D138N/D201E/E176V/E187T/E204Q/E69G/I76V/K202T/L119W/R155S/R180L/S121T/S35A/S48A/V127L/V306I/V36M/Y140L)
- Assay type: binding
Overview of recorded Normalized average relative binding affinity (ARB), HLA B*5401 for various sequences

Query: Item XXSXXXXXX [3064.0056] has what recorded Normalized average relative binding affinity (ARB), HLA B*5401?
Response: 0.014

----------
- System Under Test: HLA A*6802 (Homo sapiens, UniProt P04439, A269V/D140Y/D185E/E176V/E277Q/E87N/F33Y/G231S/I121R/I166T/I218V/L180W/L300P/L318F/N151K/P208A/P217A/Q86R/R138H/R169H/S129P/T345S/V36M)
- Type: binding
Response field label takes MET when Normalized average relative binding affinity(ARB) is strictly below 0.5 and NOT MET in all other cases.

Known results for sequences:
Query: # TODO verify Normalized average relative binding affinity(ARB) < 0.5 strictly for this sequence: XXXXDXXXX [3064.0083]
Response: MET

Query: Bench note: check whether XXXXXXSXX [3064.0136] shows Normalized average relative binding affinity(ARB) below 0.5
Response: MET

Query: is_below(Normalized average relative binding affinity(ARB), 0.5) for XXXXXVXXX [3064.0118] ?
Response: NOT MET

---
Query: Please state whether Normalized average relative binding affinity(ARB) is below 0.5 for XXXXXXXLX [3064.0150]
Response: MET

Query: Given XXXXPXXXX [3064.0093] , is recorded Normalized average relative binding affinity(ARB) strictly lower than 0.5?
Response: MET

Query: Report whether reported Normalized average relative binding affinity(ARB) is lower than 0.5 (strictly) for XXXXXCXXX [3064.0102]
Response: MET

Query: Is Normalized average relative binding affinity(ARB) strictly under 0.5 for the entry XXXXXXXIX [3064.0148] ?
Response: MET

Query: Quick check: does XXXXXFXXX [3064.0105] have Normalized average relative binding affinity(ARB) under 0.5?
Response: NOT MET

Query: Is Normalized average relative binding affinity(ARB) of XXXXSXXXX [3064.0096] strictly below 0.5?
Response: MET

Query: Determine whether this sequence shows Normalized average relative binding affinity(ARB) lower than 0.5 (ties excluded): XXXXXXXKX [3064.0149]
Response: MET

Query: In plain terms, does XXXXXXWXX [3064.0139] come in under 0.5 for Normalized average relative binding affinity(ARB)?
Response: NOT MET

Query: Take the sequence XXXXXXXNX [3064.0152] and say whether its Normalized average relative binding affinity(ARB) is less than 0.5.
Response: MET

Query: Quick check: does XXXXXXXYX [3064.0160] have Normalized average relative binding affinity(ARB) under 0.5?
Response: MET

----------
- System Under Test: HLA B*5301 (Homo sapiens, UniProt P01889, A329T/A93T/A95T/C349S/D201E/D98Y/E176V/E187L/E204Q/E69T/G107R/I218V/K202T/L105A/L119I/N104I/Q94N/R106L/R155S/R180L/S101N/S121R/S35A/S48A/T118I/V127L/V306I/V36M/Y140S/Y91F)
- Format: binding
Listed here are sequences together with their documented Normalized average relative binding affinity(ARB).
API doc: respond with a numeric literal and nothing else, no unit.

Some solved cases for reference:
Query: Dear colleague, I am looking for the recorded Normalized average relative binding affinity(ARB) of the following sequence: XXXXXXXWX [3064.0159]
Response: 0.099

Query: Any idea what Normalized average relative binding affinity(ARB) was measured for XXXXXXFXX [3064.0125] ?
Response: 0.10

Query: Consider the sequence shown here: XXXXXXIXX [3064.0128] What is its recorded Normalized average relative binding affinity(ARB)?
Response: 0.10

As a next step, examine the sequence that follows.
Query: I would be grateful if you could share the reported Normalized average relative binding affinity(ARB) for XXXXXXXEX [3064.0144] .
Response: 0.10
